Cited source for all entries: patent US20100272750A1

ASSAYED TARGET: HLA A2302 (human)
EXPERIMENT SUMMARY: 125I-probe competition, purified HLA
RECORDED ENDPOINT: IC50 (nM)
The figure you give is taken to be in nM; do not add the unit.

Entry under review: VFTFPNPFPF (modifications not checked) [HPV31.E1.565] . Reported IC50? 12

Entry under review: VYDFAFRDLCI (modifications not checked) [HPV16.E6.49] . Reported IC50? 8.9

Entry under review: PYLHSRLVVF (modifications not checked) [HPV31.E1.557] . Reported IC50? 2.8

Entry under review: MYVCCHVPL (modifications not checked) [HPV18.E5.14] . Reported IC50? 24

Entry under review: YYITETGIW (modifications not checked) [HPV45.E2.144] . Reported IC50? 2
